Listed here are compounds together with their documented IC50.
test_name: Antiproliferative activity against human PC3 cells after 72 hrs by MTT assay
Format: functional, cell-based
condition_info: PC-3, 72 h
parameter: IC50 (µM)

>  <compound_structure>
CS(=O)(=O)c1ccc(-c2nc(SCCCOC(=O)/C=C/c3ccc(O)c(O)c3)nn2-c2ccc(Br)cc2)cc1

>  <units_symbol>
µM

>  <numeric_value>
12.3

$$$$
>  <compound_structure>
CS(=O)(=O)c1ccc(-c2nc(SCCOC(=O)/C=C/c3ccc(O)c(O)c3)nn2-c2ccccc2)cc1

>  <units_symbol>
µM

>  <numeric_value>
14.6

$$$$
>  <compound_structure>
CC(=O)Oc1ccc(/C=C/C(=O)NCCCSc2nc(-c3ccc(S(C)(=O)=O)cc3)n(-c3ccc(Br)cc3)n2)cc1OC(C)=O

>  <units_symbol>
µM

>  <numeric_value>
23.9

$$$$
>  <compound_structure>
CC(=O)Oc1ccc(/C=C/C(=O)NCCSc2nc(-c3ccc(S(N)(=O)=O)cc3)n(-c3ccc(Br)cc3)n2)cc1OC(C)=O

>  <units_symbol>
µM

>  <numeric_value>
17

$$$$
>  <compound_structure>
COc1cc(/C=C/C(=O)OCCSc2nc(-c3ccc(S(C)(=O)=O)cc3)n(-c3ccc(F)cc3)n2)ccc1OC(C)=O

>  <units_symbol>
µM

>  <numeric_value>
12.8

$$$$

----------
tested_target: Prostaglandin G/H synthase 2 (Homo sapiens, UniProt P35354)
Sequence (P35354 whole entry): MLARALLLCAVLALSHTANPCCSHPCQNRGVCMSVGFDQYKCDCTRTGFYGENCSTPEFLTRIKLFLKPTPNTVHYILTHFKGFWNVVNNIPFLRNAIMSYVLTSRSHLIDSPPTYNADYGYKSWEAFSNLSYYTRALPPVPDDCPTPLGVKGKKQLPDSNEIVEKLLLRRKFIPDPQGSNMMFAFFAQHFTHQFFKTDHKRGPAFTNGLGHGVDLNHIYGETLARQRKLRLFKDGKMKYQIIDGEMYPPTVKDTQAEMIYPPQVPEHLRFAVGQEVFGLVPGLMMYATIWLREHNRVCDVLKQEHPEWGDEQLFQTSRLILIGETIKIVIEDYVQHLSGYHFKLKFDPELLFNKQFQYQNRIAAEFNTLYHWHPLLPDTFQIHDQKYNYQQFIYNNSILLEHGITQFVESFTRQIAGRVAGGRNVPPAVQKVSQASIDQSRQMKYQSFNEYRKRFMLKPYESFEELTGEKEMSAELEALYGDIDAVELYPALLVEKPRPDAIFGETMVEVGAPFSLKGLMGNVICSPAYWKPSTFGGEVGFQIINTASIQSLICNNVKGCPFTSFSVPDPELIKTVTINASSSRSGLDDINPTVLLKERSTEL
pIC50: −log10 of the molar value.

>  <compound_structure>
CSc1nc(-c2ccc(S(N)(=O)=O)cc2)n(-c2ccc(Cl)cc2)n1

>  <pIC50>
6.43

$$$$

----------
test_name: Antiproliferative activity against mouse B16F10 cells after 72 hrs by MTT assay
Format: functional, cell-based
condition_info: B16-F10, 72 h
parameter: IC50 (µM)

>  <compound_structure>
NS(=O)(=O)c1ccc(-c2nc(SCCOC(=O)/C=C/c3ccccc3)nn2-c2ccc(Br)cc2)cc1

>  <value_operator>
=

>  <numeric_value>
21.2

$$$$
>  <compound_structure>
COc1cc(/C=C/C(=O)OCCSc2nc(-c3ccc(S(C)(=O)=O)cc3)n(-c3ccc(F)cc3)n2)ccc1OC(C)=O

>  <value_operator>
=

>  <numeric_value>
11.2

$$$$
>  <compound_structure>
CC(=O)Oc1ccc(/C=C/C(=O)NCCSc2nc(-c3ccc(S(C)(=O)=O)cc3)n(-c3ccc(F)cc3)n2)cc1OC(C)=O

>  <value_operator>
=

>  <numeric_value>
14.6

$$$$
>  <compound_structure>
O=C(O)/C=C/c1ccc(O)c(O)c1

>  <value_operator>
>

>  <numeric_value>
100

$$$$

----------
test_name: Antiproliferative activity against mouse B16F10 cells after 72 hrs by MTT assay
Format: functional, cell-based
condition_info: B16-F10, 72 h

>  <compound_structure>
NS(=O)(=O)c1ccc(-c2nc(SCCOC(=O)/C=C/c3ccc(O)c(O)c3)nn2-c2ccccc2)cc1

>  <IC50 / µM>
15

$$$$
>  <compound_structure>
CC(=O)Oc1ccc(/C=C/C(=O)NCCCSc2nc(-c3ccc(S(N)(=O)=O)cc3)n(-c3ccccc3)n2)cc1OC(C)=O

>  <IC50 / µM>
29.1

$$$$
>  <compound_structure>
COc1cc(/C=C/C(=O)OCCSc2nc(-c3ccc(S(C)(=O)=O)cc3)n(-c3ccc(C(F)(F)F)cc3)n2)ccc1OC(C)=O

>  <IC50 / µM>
10.5

$$$$
>  <compound_structure>
CC(=O)Oc1ccc(/C=C/C(=O)OCCCSc2nc(-c3ccc(S(N)(=O)=O)cc3)n(-c3ccc(F)cc3)n2)cc1OC(C)=O

>  <IC50 / µM>
10.9

$$$$
>  <compound_structure>
CC(=O)Oc1ccc(/C=C/C(=O)NCCCSc2nc(-c3ccc(S(C)(=O)=O)cc3)n(-c3ccc(Br)cc3)n2)cc1OC(C)=O

>  <IC50 / µM>
16.4

$$$$
>  <compound_structure>
COc1cc(/C=C/C(=O)OCCSc2nc(-c3ccc(S(C)(=O)=O)cc3)n(-c3ccc(C(F)(F)F)cc3)n2)ccc1O

>  <IC50 / µM>
8.65

$$$$
>  <compound_structure>
COc1cc(/C=C/C(=O)OCCSc2nc(-c3ccc(S(C)(=O)=O)cc3)n(-c3ccc(Br)cc3)n2)ccc1OC(C)=O

>  <IC50 / µM>
12.4

$$$$

----------
Measured IC50, listed per entry for reference.
tested_target: Prostaglandin G/H synthase 2 (Rattus norvegicus)
Sequence (P35355 whole entry): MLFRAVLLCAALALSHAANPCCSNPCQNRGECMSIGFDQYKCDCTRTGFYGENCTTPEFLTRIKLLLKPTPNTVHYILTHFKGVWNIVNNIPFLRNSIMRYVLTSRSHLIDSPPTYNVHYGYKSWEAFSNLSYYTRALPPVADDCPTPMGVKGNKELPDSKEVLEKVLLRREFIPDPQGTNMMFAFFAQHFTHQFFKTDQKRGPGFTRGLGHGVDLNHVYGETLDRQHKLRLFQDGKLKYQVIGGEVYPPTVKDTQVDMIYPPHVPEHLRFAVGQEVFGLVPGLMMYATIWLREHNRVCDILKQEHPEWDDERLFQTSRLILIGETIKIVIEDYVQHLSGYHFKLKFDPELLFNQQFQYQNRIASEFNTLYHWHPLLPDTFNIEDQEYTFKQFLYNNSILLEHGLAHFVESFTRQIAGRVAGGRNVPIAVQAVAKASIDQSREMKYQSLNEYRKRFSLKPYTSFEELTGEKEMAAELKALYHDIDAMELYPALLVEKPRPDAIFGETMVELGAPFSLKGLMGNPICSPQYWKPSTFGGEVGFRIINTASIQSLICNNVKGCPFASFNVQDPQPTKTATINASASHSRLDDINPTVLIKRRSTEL
test_name: Inhibition of COX2 in rat abdominal macrophages assessed as PGE2 production pretreated for 30 mins followed by addition of 10 uM arachidonic acid as substrate for 20 mins by EIA

>  <compound_structure>
COc1cc(/C=C/C(=O)OCCSc2nc(-c3ccc(S(C)(=O)=O)cc3)n(-c3ccc(F)cc3)n2)ccc1OC(C)=O

>  <tested_target>
Prostaglandin G/H synthase 2 (Rattus norvegicus)

>  <IC50 [nM]>
240

$$$$
>  <compound_structure>
CS(=O)(=O)c1ccc(-c2nc(SCCCOC(=O)/C=C/c3ccc(O)c(O)c3)nn2-c2ccc(Br)cc2)cc1

>  <tested_target>
Prostaglandin G/H synthase 2 (Rattus norvegicus)

>  <IC50 [nM]>
370

$$$$
>  <compound_structure>
CC(=O)Oc1ccc(/C=C/C(=O)OCCSc2nc(-c3ccc(S(C)(=O)=O)cc3)n(-c3ccccc3)n2)cc1OC(C)=O

>  <tested_target>
Prostaglandin G/H synthase 2 (Rattus norvegicus)

>  <IC50 [nM]>
920

$$$$
>  <compound_structure>
COc1cc(/C=C/C(=O)OCCSc2nc(-c3ccc(S(C)(=O)=O)cc3)n(-c3ccc(Br)cc3)n2)ccc1OC(C)=O

>  <tested_target>
Prostaglandin G/H synthase 2 (Rattus norvegicus)

>  <IC50 [nM]>
290

$$$$
>  <compound_structure>
COc1cc(/C=C/C(=O)OCCSc2nc(-c3ccc(S(C)(=O)=O)cc3)n(-c3ccccc3)n2)ccc1OC(C)=O

>  <tested_target>
Prostaglandin G/H synthase 2 (Rattus norvegicus)

>  <IC50 [nM]>
620

$$$$
>  <compound_structure>
COc1cc(/C=C/C(=O)OCCSc2nc(-c3ccc(S(C)(=O)=O)cc3)n(-c3ccc(C)cc3)n2)ccc1OC(C)=O

>  <tested_target>
Prostaglandin G/H synthase 2 (Rattus norvegicus)

>  <IC50 [nM]>
870

$$$$
>  <compound_structure>
CC(=O)Oc1ccc(/C=C/C(=O)OCCSc2nc(-c3ccc(S(N)(=O)=O)cc3)n(-c3ccc(Br)cc3)n2)cc1OC(C)=O

>  <tested_target>
Prostaglandin G/H synthase 2 (Rattus norvegicus)

>  <IC50 [nM]>
310

$$$$

----------
Recorded IC50 by entry
test_name: Antiproliferative activity against human PC3 cells after 72 hrs by MTT assay
Assay type: functional, cell-based
condition_info: PC-3, 72 h

>  <compound_structure>
CC(=O)Oc1ccc(/C=C/C(=O)OCCSc2nc(-c3ccc(S(C)(=O)=O)cc3)n(-c3ccc(C(F)(F)F)cc3)n2)cc1OC(C)=O

>  <IC50>
14.5 µM

$$$$
>  <compound_structure>
CS(=O)(=O)c1ccc(-c2nc(SCCCNC(=O)/C=C/c3ccc(O)c(O)c3)nn2-c2ccc(F)cc2)cc1

>  <IC50>
23.1 µM

$$$$
>  <compound_structure>
NS(=O)(=O)c1ccc(-c2nc(SCCOC(=O)/C=C/c3ccccc3)nn2-c2ccc(Br)cc2)cc1

>  <IC50>
20.1 µM

$$$$
>  <compound_structure>
O=C(/C=C/c1ccc(O)c(O)c1)OCCc1ccccc1

>  <IC50>
10.2 µM

$$$$
